Each entry below carries its reported IC50, ELK1-luciferase reporter (hGFRAL/hRET).
Molecular target: T1, human GFRAL expressed on cells (human, UniProt Q6UXV0 20-394)
T1 sequence: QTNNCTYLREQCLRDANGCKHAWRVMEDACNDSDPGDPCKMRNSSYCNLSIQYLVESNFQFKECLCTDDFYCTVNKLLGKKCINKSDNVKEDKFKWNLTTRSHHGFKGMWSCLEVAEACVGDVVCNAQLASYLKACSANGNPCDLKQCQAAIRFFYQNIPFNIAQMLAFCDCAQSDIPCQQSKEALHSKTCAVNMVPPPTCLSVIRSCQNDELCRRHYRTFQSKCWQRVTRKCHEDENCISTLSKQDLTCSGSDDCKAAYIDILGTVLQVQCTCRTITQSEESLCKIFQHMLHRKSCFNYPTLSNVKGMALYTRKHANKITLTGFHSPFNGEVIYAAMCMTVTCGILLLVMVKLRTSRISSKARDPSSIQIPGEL
Assay: cell-based or functional assay
// note: answer is a bare numeric in nM

Solved cases (5 shown):
>  <Binder>
antibody designated 25M22 (antibody, V domains shown, mouse hybridoma monoclonal) VH: QVQLQQSGPDLVKPGASVKISCKASGYTFTSYWVNWMKQRPGKGLEWIGRIYPGDGDTNYNGKFKGKATLTADKSSSTAYMQLSSLTSEDSAVYFCARAYLLRLRRTGYYAMDYWGQGTSVTVSS VL: DVVLTQTPLSLPVNIGDQASISCKSTKSLLNSDEFTYLDWYLQKPGQSPQLLIFLVSNRFSGVPDRFSGSGSGTDFTLKISRVEAEDLGVYYCFQSNYLPYTFGGGTKLEIK

>  <Endpoint result>
2.89

$$$$
>  <Binder>
antibody designated 24G2 (antibody, V domains shown, mouse hybridoma monoclonal) VH: QVQLQQSGAELLKPGASVKLSCKASGYTFTTYWMHWVKQRPGQGLEWIGMIHPNSGSSNYNEKFKNKATLTVDKSSSTAYMQLSSLTSEDSAVYFCARSDYGFIPYFDYWGQGTTLTVSS VL: DILLTQSPAILSVSPGERVSFSCRASQSIGTSIHWYQQRTNGSPRLLIKYASESISGIPSRFSGSGSGTDFTLIINSVESEDIADYYCQQSNSWPTFTFGAGTKLELK

>  <Endpoint result>
18.9

$$$$
>  <Binder>
antibody designated 2A9 (antibody, V domains shown, mouse hybridoma monoclonal) VH: EVKLVESGGGLVKPGGSLKLSCAASGFTFSTYAMSWVRQTPEKRLEWVASITSGGTTYYTDSVKGRFTISRDNARNILYLQMSSLRSEDTAMYYCARDGNFYYYGMDYWGQGTSVTVSS VL: DIVMTQSQKFMSTSVGDRVSITCKASQNVGTAVAWYQQKPGQSPKILIYSASNRFTGVPDRFTGSGSGTDFTLTISNMQSEDLADYFCQQYSSYFTFGGGTKLELK

>  <Endpoint result>
3.71

$$$$
>  <Binder>
antibody designated 12A3 (antibody, V domains shown, mouse hybridoma monoclonal) VH: QIQLVQSGPELKKPGETVKISCKASGYPFTIYGMNWVEQAPGKGLKWMGWINTYSGVPTYADDFKGRFAFSLETSASTAYLQINNLKDEDTATYFCASATGNYWGQGTTLTVSS VL: DIQMTQSPSSLSASLGERVSLTCRASQDIGSSLNWLQQEPDGTIKRLIYATSSLDSGVPKRFSGSRSGSDYSLTISSLESEDFVDYYCLQYASSPYTFGGGTKVEIK

>  <Endpoint result>
4.99

$$$$
>  <Binder>
antibody designated 17J16 (antibody, V domains shown, mouse hybridoma monoclonal) VH: QVQLQQSGAELAKPGASVKMSCKTSGYTFTDYWIHWVKQRPGQGLEWIGYINPNSNYAEYNQKFKVKATLTADKSSSTAYLQLSRLTSEDSAVYYCARFDWNWYFHVWGAGSTVTVSS VL: DVALTQIPLTLSVTVGQPASISCKSSQSLSDSDGKTYLNWLLQKPGQSPKRLIYLVSRLGSGVPDRFTGSGSGADFTLKISRVEAEDLGVYYCWQGTHFPQTFGGGTKLEIK

>  <Endpoint result>
0.666

$$$$

Kindly note the recorded IC50, ELK1-luciferase reporter (hGFRAL/hRET) for antibody designated 1C1 (antibody, V domains shown, mouse hybridoma monoclonal) VH: QMQLKQSGPGLVQPSQSLSITCTVSGFSLNDYGVHWIRQSPGKGLEWLGVIWSGGRTDYNAAFISRLSISKDNSKSQVFFKMSSLQPQDTAIYYCARWALYFLYGGSMDYWGQGTSVTVSS VL: DVVLTQTPLSLPVSPGDQASISCRSSQSLVHSSGITYLHWYLQKPGQSPKLLIYKLSNRFSGVPDRFSGSGSGTDFTLKISRVEAEDLGVYFCSQSTHVPPWTFGGGTKLEIK , which is 8.64
